Experimental Target: Jak2 (UniProt O60674)
Sequence (O60674 whole entry, looked up): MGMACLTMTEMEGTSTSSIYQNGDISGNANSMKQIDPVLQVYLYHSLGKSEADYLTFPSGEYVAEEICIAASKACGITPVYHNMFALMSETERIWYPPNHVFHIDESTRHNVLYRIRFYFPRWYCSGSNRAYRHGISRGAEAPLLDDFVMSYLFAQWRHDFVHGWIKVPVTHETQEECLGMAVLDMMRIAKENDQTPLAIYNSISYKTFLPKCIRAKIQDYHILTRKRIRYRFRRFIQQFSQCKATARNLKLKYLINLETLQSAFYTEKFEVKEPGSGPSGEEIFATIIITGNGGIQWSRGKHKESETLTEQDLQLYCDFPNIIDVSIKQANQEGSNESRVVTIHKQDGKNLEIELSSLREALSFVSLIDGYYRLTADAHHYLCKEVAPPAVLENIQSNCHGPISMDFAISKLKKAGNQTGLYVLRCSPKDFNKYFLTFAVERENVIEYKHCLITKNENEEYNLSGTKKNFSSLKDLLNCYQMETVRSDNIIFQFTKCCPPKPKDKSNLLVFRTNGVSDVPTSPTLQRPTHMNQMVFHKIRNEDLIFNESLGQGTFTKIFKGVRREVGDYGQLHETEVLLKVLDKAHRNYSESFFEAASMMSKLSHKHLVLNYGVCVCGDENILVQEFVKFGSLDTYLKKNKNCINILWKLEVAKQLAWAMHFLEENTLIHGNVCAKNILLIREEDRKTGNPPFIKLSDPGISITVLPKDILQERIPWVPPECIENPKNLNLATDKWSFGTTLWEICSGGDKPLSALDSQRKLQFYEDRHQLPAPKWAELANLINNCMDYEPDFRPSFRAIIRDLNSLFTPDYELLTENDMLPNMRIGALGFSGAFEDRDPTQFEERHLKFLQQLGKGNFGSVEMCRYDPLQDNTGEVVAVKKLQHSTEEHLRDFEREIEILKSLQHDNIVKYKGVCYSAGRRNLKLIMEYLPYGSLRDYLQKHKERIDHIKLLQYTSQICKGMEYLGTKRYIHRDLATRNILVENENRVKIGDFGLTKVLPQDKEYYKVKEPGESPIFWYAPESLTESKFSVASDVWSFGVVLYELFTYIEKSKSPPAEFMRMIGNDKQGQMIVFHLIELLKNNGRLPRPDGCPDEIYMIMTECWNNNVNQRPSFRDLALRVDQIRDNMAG
Protocol Description: phosphorylation enrichment, bacterial display (enrichment ratio); higher = better substrate or ligand; peptides without Tyr show the background
Decide using phosphorylation enrichment: a value greater than or equal to 0.8 is 1.0, a smaller one is 0.0.

// below: answered sequences
1) SQAPGYSFTAA [CYCS_Y47_G42S_YF] | 0.0
2) KLFFIYTSGTT [SLC27A4_Y245_YF] | 1.0
3) ESDFTYSSSFE [SRPK2_Y427_YF] | 1.0
4) KPNMNYDKLSR [FLI1_Y332] | 0.0
5) NACGLYYKLHN [GATA2_Y376] | 1.0

# bool: phosphorylation enrichment of KLLRLYAVVTR [LYN_Y306_V303L] >= 0.8
1.0

----------
System: c-Src
Protocol Description: phosphorylation enrichment, bacterial display (enrichment ratio); higher = better substrate or ligand; peptides without Tyr show the background
# maps each entry to its phosphorylation enrichment

Answered examples (5):
1. LINSVYGCSRQ [TMPRSS6_Y290_T287N] | 5.15
2. LHVKMYNFLRS [ADGRG7_Y760_R756H] | 0.711
3. RGFDTYFGFLL [ARSB_Y165_YF] | 6.93
4. DDKQPYEKKAE [HMGB1_Y144_A149E] | 0.43
5. AEEKEYHAEGG [EGFR_Y869] | 0.486

Missing value: phosphorylation enrichment, c-Src, entry TQRPYYKGGGG [TYROBP_Y112] . Fill in?
0.438

Likewise for VKPENYRRLDV [VHL_Y175_I180V] ?
0.372

Likewise for QAYSWYQHQRA [NDST1_Y714_R709Q] ?
0.642

Likewise for DLVSEYQQYQD [TUBB3_Y422] ?
0.677

Likewise for PVQAAYRKVVA [HBB_Y131_Q132R] ?
0.421

Likewise for YYHCTYKKRMI [CLEC12A_Y242] ?
0.599

Likewise for VDTRAYFTSAT [MT-CO1_Y304] ?
0.38

----------
# maps each entry to its SH2 binding enrichment
Experimental Target: SHP2-C SH2;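 further: peptide library displayed on the E. coli surface as eCPX fusions, selected cells deep-sequenced, score is each peptide's frequency after selection divided by its frequency in the input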
Protocol Description: SH2 binding enrichment of the phosphorylated peptide, bacterial display (enrichment ratio); higher = better substrate or ligand; peptides without Tyr show the background
Would you mind answering with just the numeric figure?

1) SQINLYQDVML [ZNF806_Y33_A28S] | 0.771
2) ETKKQYDSFTY [TMED3_Y85] | 0.714
3) TNYPLYLRSLE [MTM1_Y71_R69P] | 0.862
4) DGQVNYEEFVQ [CALM1_Y139] | 0.493
5) HDRNTYEKYLE [TF_Y666_G671E] | 1.14

# input sequence: LKGIRYLTSGL [PIGA_Y82_R77L] ; wanted: its SH2 binding enrichment
1.03

Likewise for LINLKYSVEEE [PCDH19_Y27] ?
0.548

Likewise for QLDQHYLLVPE [DDX49_Y223_R222H] ?
0.436

Likewise for TEALFYTDDTA [ADPRS_Y75_YF] ?
0.675

Likewise for NACGLYYKLHN [GATA2_Y376] ?
0.547

Likewise for LHRHAYPEQQQ [DPPA2_Y127_R131Q] ?
0.839

Likewise for SQSPHYFRSGQ [GPATCH8_Y1038_R1043Q] ?
0.533

Likewise for RPYVYYYSYLL [PTEN_Y177_R173P] ?
1.12

Likewise for TNFCLYLRSLE [MTM1_Y71_R69C_YF] ?
0.644
